Exercise: for every item that follows, state its recorded EC50.
test system: Wnt/β-catenin signaling pathway (Wnt-responsive SP5 promoter luciferase reporter in SW480 cells); assay: Wnt reporter (SP5 promoter-firefly luciferase) activation assay in SW480 cells; format: cell-based; settings: Homo sapiens; SW480 colon cancer cells with SP5 promoter luciferase reporter; 24 h after compound addition; normalized to DMSO; concentration at half maximal activation

Answered examples (5):
Molecule	Measured endpoint	Result
O=C(CCC(=O)c1ccccc1F)c1cccs1 [Compound 557]	EC50	26 nM
O=C(CCC(=O)c1ccco1)c1ccc2c(c1)CCCO2 [Compound 365]	EC50	33 nM
O=C(CCC(=O)c1cccc2c1OCCO2)c1ccco1 [Compound 442]	EC50	2150 nM
O=C(CCC(=O)c1ccc2c(c1)OCCO2)c1cccc(F)c1 [Compound 11]	EC50	13 nM
O=C(CCC(=O)c1ccc2c(c1)OCCO2)c1ccc(C(F)(F)F)cc1 [Compound 10]	EC50	> 10000 nM

I would be grateful if you could provide EC50 for each of the following entries.
1. Cc1ccccc1C(=O)CCC(=O)c1ccc2c(c1)CCCO2 [Compound 358]
2. Cc1cccc(C(=O)CCC(=O)c2n[nH]c3ccccc23)c1 [Compound 529]
3. O=C(CCC(=O)c1ccccc1F)c1ccccn1 [Compound 538]
4. O=C(CCC(=O)c1ccc2ocnc2c1)c1cccc(F)c1 [Compound 292]
5. O=C(CCC(=O)c1c[nH]c2ccccc12)c1ccccc1 [Compound 325]

Result:
1. 14 nM
2. 695 nM
3. 63 nM
4. 595 nM
5. 63 nM

---

Exercise: for every item that follows, state its recorded log10 EC50.
test system: Wnt/β-catenin signaling pathway (Wnt-responsive SP5 promoter luciferase reporter in SW480 cells); assay: Wnt reporter (SP5 promoter-firefly luciferase) activation assay in SW480 cells; type: cell-based; details: Homo sapiens; SW480 colon cancer cells with SP5 promoter luciferase reporter; 24 h after compound addition; normalized to DMSO; concentration at half maximal activation
Would you kindly interpret these values as log10 of EC50 expressed in nM?

Compound	Measured endpoint	Quantitative result
O=C(CCC(=O)c1ncccn1)c1ccccc1 [Compound 718]	log10 EC50	2.83

I would be grateful if you could provide log10 EC50 for each of the following entries.
1. Cc1ccc(C(=O)CCC(=O)c2ccc3[nH]ncc3c2)cc1 [Compound 503]
2. O=C(CCC(=O)c1n[nH]c2ccccc12)c1ccccc1C(F)(F)F [Compound 326]
3. O=C(CCC(=O)c1ccccc1F)c1ccc2c(c1)OCO2 [Compound 213]

Result:
[2.69, 2.07, 1.26]

I would be grateful if you could provide log10 EC50 for each of the following entries.
1. COc1ccccc1C(=O)CCC(=O)c1ccc2ocnc2c1 [Compound 294]
2. COc1ccccc1C(=O)CCC(=O)c1ccc2sccc2c1 [Compound 307]
3. Cc1ccccc1C(=O)CCC(=O)c1ccc2[nH]ccc2c1 [Compound 445]
4. O=C(CCC(=O)c1n[nH]c2ccccc12)c1ccccc1 [Compound 338]
5. O=C(CCC(=O)c1ccco1)c1ccc2c(c1)OCO2 [Compound 375]
6. O=C(CCC(=O)c1ccc2c(c1)OCO2)c1cccc(F)c1 [Compound 214]
7. O=C(CCC(=O)c1ccccc1C(F)(F)F)c1ccc2sccc2c1 [Compound 301]

Result:
1: 3.24; 2: 1.74; 3: 1.00; 4: 1.81; 5: 1.85; 6: 1.00; 7: 1.59
